B1: glmS ribozyme (parent)
chain: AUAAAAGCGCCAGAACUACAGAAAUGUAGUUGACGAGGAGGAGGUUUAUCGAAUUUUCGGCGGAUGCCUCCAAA

variants of: B1; test: self-cleavage kobs at 40 uM GlcN6P; higher = faster cleavage; RNA array; conditions: with glucosamine-6-phosphate
This sample holds only a part of the variants without activity.
I'd appreciate it if you could supply self-cleavage kobs at 40 uM GlcN6P values for the items below.

Input: Could you tell me which self-cleavage kobs at 40 uM GlcN6P is on file for A33C U55C U57C ?
Output: < 1e-05 s⁻¹

Input: Can you check C50U G59A next?
Output: < 1e-05 s⁻¹

Input: Can you check G7U G9C next?
Output: < 1e-05 s⁻¹

Input: Can you check "G21U" next?
Output: 0.00136 s⁻¹

Input: Can you check C8G C34U A42U next?
Output: < 1e-05 s⁻¹

Input: Can you check A6G G41U C50G next?
Output: < 1e-05 s⁻¹

Input: Can you check U54A C68G next?
Output: 5.44e-05 s⁻¹

Input: Can you check A39U C71G next?
Output: 4.48e-05 s⁻¹

Input: Can you check A36U G44A next?
Output: < 1e-05 s⁻¹

Input: Can you check A12C A39G next?
Output: 0.000367 s⁻¹

Input: Can you check U30A U56C A64G next?
Output: < 1e-05 s⁻¹

Input: Can you check C8G C10A next?
Output: < 1e-05 s⁻¹

Input: Can you check G60C C67G next?
Output: < 1e-05 s⁻¹

Input: Can you check A15U U55C next?
Output: 0.000117 s⁻¹

Input: Can you check G32C G41A A52C next?
Output: < 1e-05 s⁻¹

Input: Can you check U31C A48G next?
Output: < 1e-05 s⁻¹

Input: Can you check C10U U31C G66U next?
Output: < 1e-05 s⁻¹

Input: Can you check C10G A48U next?
Output: < 1e-05 s⁻¹

Input: Can you check C10G U30G G40U next?
Output: < 1e-05 s⁻¹

Input: Can you check A42U U57C next?
Output: < 1e-05 s⁻¹

Input: Can you check A36C U49G A53G next?
Output: 4.33e-05 s⁻¹

Input: Can you check G43C U57A next?
Output: < 1e-05 s⁻¹

Input: Can you check G7U G35A next?
Output: < 1e-05 s⁻¹

Input: Can you check G41U G59U next?
Output: < 1e-05 s⁻¹

Input: Can you check G9A C10A C11U U56G C71U next?
Output: < 1e-05 s⁻¹

Input: Can you check G41A U47A next?
Output: 7.36e-05 s⁻¹

Input: Can you check G29U A53G next?
Output: 0.000165 s⁻¹

Input: Can you check G9A C58U C61G next?
Output: < 1e-05 s⁻¹

Input: Can you check G41U U46G C67U next?
Output: < 1e-05 s⁻¹

Input: Can you check C11G A15G A53C next?
Output: < 1e-05 s⁻¹

Input: Can you check A48U U49C next?
Output: < 1e-05 s⁻¹

Input: Can you check A6U A33G next?
Output: < 1e-05 s⁻¹

Input: Can you check A14U U30A next?
Output: 3.62e-05 s⁻¹

Input: Can you check A6C G41C G43A A48G next?
Output: < 1e-05 s⁻¹

Input: Can you check A42G G51A next?
Output: < 1e-05 s⁻¹

Input: Can you check G59A A64G next?
Output: < 1e-05 s⁻¹

Input: Can you check A6U C10G A42G C50G C67A C70A next?
Output: 0.000143 s⁻¹

Input: Can you check C34G G62U next?
Output: < 1e-05 s⁻¹

Input: Can you check G7A A52U A64G C71A next?
Output: < 1e-05 s⁻¹

Input: Can you check G7A G51A C67A next?
Output: < 1e-05 s⁻¹

Input: Can you check U47G U55C next?
Output: 0.000233 s⁻¹

Input: Can you check G44U U57G next?
Output: < 1e-05 s⁻¹

Input: Can you check G37A G63C next?
Output: < 1e-05 s⁻¹

Input: Can you check U46G U65A C70U next?
Output: 8.31e-05 s⁻¹

Input: Can you check G37U U45G U46C G63A C68A next?
Output: < 1e-05 s⁻¹

Input: Can you check A39U C61A U65C next?
Output: < 1e-05 s⁻¹

Input: Can you check A33U C61U C70U next?
Output: < 1e-05 s⁻¹

Input: Can you check C8A C50U C67G next?
Output: < 1e-05 s⁻¹

Input: Can you check G9A A36C U49C next?
Output: < 1e-05 s⁻¹

Input: Can you check G9C G43A G44U C70G next?
Output: < 1e-05 s⁻¹

Input: Can you check C8U G40U C70A next?
Output: < 1e-05 s⁻¹

Input: Can you check C8G G9U next?
Output: < 1e-05 s⁻¹

Input: Can you check G29A U47A next?
Output: 0.000101 s⁻¹

This collection of values is drawn from the supplement of paper PMC7125110.
